# System: C. albicans
# run description: Minimum inhibitory concentration broth double-dilution assay
# Format: cell-based, Candida albicans
# settings: #4 C. albicans T-2068 (DP-C42); 24 h, 30 °C
*1 amine or outer side, *2 acyl side, *3 side chain or, on linkers, in order; H or OH if unused. Where a SMILES comes first, the peptide text is derived from it. Bridges are numbered along the chain shown (N, C = ends). [ ]: non-standard residue; d: D form. The star is where a group is joined. Orn(4R-OH,5R-OCH2CH2NMe3+) = C[N+](C)(C)CCO[C@@H](N[*:3])[C@H](O)C[C@H](N[*:1])C(=O)[*:2]; pTerphenylCO(4''-OnC5H11) = CCCCCOc1ccc(-c2ccc(-c3ccc(C(=O)*)cc3)cc2)cc1; Orn(4R-OH,5R-OH) = O=C([C@H](C[C@@H](O)[C@@H](O)N[*:3])N[*:1])[*:2]; hTyr(3S-OH,4S-OH) = N[C@H](C(=O)O)[C@H](O)[C@@H](O)c1ccc(O)cc1; Pro(3S-OH,4S-Me) = C[C@H]1CN[C@H](C(=O)O)[C@H]1O; hTyr(3R-OH) = N[C@H](C(=O)O)[C@H](O)Cc1ccc(O)cc1; Hyp = O=C(O)[C@@H]1C[C@@H](O)CN1
quantity measured: MIC (µg/mL)

molecule="CCCCCOc1ccc(-c2ccc(-c3ccc(C(=O)N[C@H]4C[C@@H](O)[C@@H](OCC[N+](C)(C)C)NC(=O)[C@@H]5[C@@H](O)[C@@H](C)CN5C(=O)[C@H]([C@@H](C)O)NC(=O)[C@H]([C@H](O)Cc5ccc(O)cc5)NC(=O)[C@@H]5C[C@@H](O)CN5C(=O)[C@H]([C@@H](C)O)NC4=O)cc3)cc2)cc1 [Compound 2, dehydroxy-RZF] ({pTerphenylCO(4''-OnC5H11)}-[Orn(4R-OH,5R-OCH2CH2NMe3+)]T[Hyp][hTyr(3R-OH)]T[Pro(3S-OH,4S-Me)]; lactam 1-C)" quantity_measured=MIC recorded_result=0.5
molecule="CCCCCOc1ccc(-c2ccc(-c3ccc(C(=O)N[C@H]4C[C@@H](O)[C@@H](OCC[N+](C)(C)C)NC(=O)[C@@H]5[C@@H](O)[C@@H](C)CN5C(=O)[C@H]([C@@H](C)O)NC(=O)[C@H]([C@H](O)[C@@H](O)c5ccc(O)cc5)NC(=O)[C@@H]5C[C@@H](O)CN5C(=O)[C@H]([C@@H](C)O)NC4=O)cc3)cc2)cc1 [RZF, rezafungin] ({pTerphenylCO(4''-OnC5H11)}-[Orn(4R-OH,5R-OCH2CH2NMe3+)]T[Hyp][hTyr(3S-OH,4S-OH)]T[Pro(3S-OH,4S-Me)]; lactam 1-C)" quantity_measured=MIC recorded_result=2
molecule="CCCCCOc1ccc(-c2ccc(-c3ccc(C(=O)N[C@H]4C[C@@H](O)[C@@H](O)NC(=O)[C@@H]5[C@@H](O)[C@@H](C)CN5C(=O)[C@H]([C@@H](C)O)NC(=O)[C@H]([C@H](O)Cc5ccc(O)cc5)NC(=O)[C@@H]5C[C@@H](O)CN5C(=O)[C@H]([C@@H](C)O)NC4=O)cc3)cc2)cc1 [Compound 1, dehydroxy-ANF] ({pTerphenylCO(4''-OnC5H11)}-[Orn(4R-OH,5R-OH)]T[Hyp][hTyr(3R-OH)]T[Pro(3S-OH,4S-Me)]; lactam 1-C)" quantity_measured=MIC recorded_result=0.25
